# systemTested: T1, extracellular domain (ECD) of human TrkA protein, N-terminal flag tag and C-terminal His tag (PHA) (human, UniProt P04629 33-423)
# T1 construct: Made in 293-F cells and purified by IMAC; also called TrkA ECD protein; TrkA (ECD); not shown: flag tag at the N-terminus (after the signal peptide); His tag at the C-terminus
# T1 sequence (P04629 33-423): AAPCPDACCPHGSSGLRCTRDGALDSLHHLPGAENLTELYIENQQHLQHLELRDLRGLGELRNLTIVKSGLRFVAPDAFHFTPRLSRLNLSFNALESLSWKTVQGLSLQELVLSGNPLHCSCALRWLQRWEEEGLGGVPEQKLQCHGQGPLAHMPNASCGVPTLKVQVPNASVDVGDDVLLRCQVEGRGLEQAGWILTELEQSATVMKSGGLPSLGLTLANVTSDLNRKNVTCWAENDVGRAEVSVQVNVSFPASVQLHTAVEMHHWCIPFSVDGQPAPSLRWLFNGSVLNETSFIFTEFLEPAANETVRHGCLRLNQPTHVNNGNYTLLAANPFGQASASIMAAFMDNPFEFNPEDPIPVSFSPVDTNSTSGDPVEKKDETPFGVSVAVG
# assayProtocol: BLI (Octet Red384), as in Example 4
measurementLabel: kon (M⁻¹ s⁻¹)

binder | measurementLabel | testResult
PHD48-08 (antibody, IgG4, V domains shown) VH: QVQLVQSGAEVKKPGASVKVSCKASGYTFTTYWMHWVRQAPGQGLEWIGTIYPGNSDSSNAQKFQGRVTLTADTSTSTAYMELSSLRSEDTAVYYCTRFYYEDWYFDVWGQGTTVTVSS VL: DIQMTQSPSSLSASVGDRVTITCRASSSVSYLYWFQQKPGKAPKPLIYRTSNLASGVPSRFSGSGSGTDYTLTISSLQPEDFATYYCQQYHSYPPTFGGGTKVEIK | kon | 240000
